Provenance of the data: patent US20230203146A1

Target: T1, FLAG-tagged recombinant human Ang1 (Alexis Biochemicals) (human, UniProt Q15389 20-498, limits assumed)
T1 construct: Bought reagent; also called hAng1; FLAG-hAng1
T1 sequence (looked up): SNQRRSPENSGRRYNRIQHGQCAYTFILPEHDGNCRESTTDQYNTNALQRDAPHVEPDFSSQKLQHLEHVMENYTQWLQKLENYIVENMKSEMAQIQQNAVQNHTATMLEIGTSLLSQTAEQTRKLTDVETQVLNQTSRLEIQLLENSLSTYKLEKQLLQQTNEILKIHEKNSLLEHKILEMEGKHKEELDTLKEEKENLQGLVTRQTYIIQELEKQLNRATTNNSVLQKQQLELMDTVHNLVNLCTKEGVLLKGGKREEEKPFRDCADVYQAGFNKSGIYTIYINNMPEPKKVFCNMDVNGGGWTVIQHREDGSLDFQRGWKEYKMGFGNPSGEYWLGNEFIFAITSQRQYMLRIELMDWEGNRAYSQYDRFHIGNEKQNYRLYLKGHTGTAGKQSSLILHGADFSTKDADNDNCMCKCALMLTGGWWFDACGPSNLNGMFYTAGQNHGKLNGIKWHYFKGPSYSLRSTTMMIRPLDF
Experiment: competition ELISA, periplasmic extract, FLAG-hAng1 on hTie2/Fc
Provide the reported % inh of each item.
The response must be a number in % with no trailing unit.

Reported % inh ( VHH 28D10 (VHH, also called 028D10; not shown: C-terminal c-myc tag and His6 tag) VHH: EVQLVESGGGLVQAGGSLRLSCAASGFTLDDYAIGWFRQAPGKEREGVSCIRDSDGSTYYADSVKGRFTISSDNDKNTVYLQMNSLKPEDTAVYYCAAVPAGRLRFGEQWYPLYEYDAWGQGTQVTVSS ) = 4

VHH 25B01 (VHH, Tested as periplasmic extract; also called 025B01; not shown: C-terminal c-myc tag and His6 tag) VHH: EVQLVESGGGLVQAGGSLRLSCAASGFTFDDYAIGWFRQAPGKEREGVSCISSSDGSTYYADSVKGRFTISSDNAKNTVYLQMNSLKPEDTAVYYCAAAWGASRLPIGTMPPYEYDYWGQGTQVTVSS has a reported % inh of 4

// field: % inh; key: VHH 1E01 (VHH, Tested as periplasmic extract; also called 001E01; not shown: C-terminal c-myc tag and His6 tag) VHH: EVQLVESGGGLVQPGGSLRLSCVHSGTISSTHAMGWYRQAPGKQREHVATFTNRGSTYYAGSVKGRFTISRDNAKNTMYLQMNSLKPEDTAVYYCNTGPYWGQGTQVTVSS ; value = 4

For this binder ( VHH 12A08 (VHH, Tested as periplasmic extract; also called 012A08; not shown: C-terminal c-myc tag and His6 tag) VHH: EVQLVESGRGLVQAGGSLRLSCAASGSIFSINAMLWYRQAPGKQRELVAAITSGGSTNYADSVKGRFTISRDNAKNTVYLQMNSLKPEDTAVYYCAADSDYSSDYYYWGQGTQVTVSS ), measured % inh is 3
